Value source: patent US20100144712A1

- Tested on: Candida albican ATCC MYA-1003
- assayText: In vitro antifungal activity (MIC80), Candida albican ATCC MYA-1003
- Assay type: cell-based
- details: Candida; Table 2, MYA 1003; read-out: Minimal inhibitory concentration (MIC80)
quantityName: MIC80

Request the reported MIC80 associated with CC(N1CCN(C(=O)c2cn3c(C(=O)c4ccccc4)cnc3s2)CC1)C(O)(Cn1cncn1)c1ccc(F)cc1F (centres unmarked) > 128 µg/mL

Request the reported MIC80 associated with C[C@@H](N1CCN(c2cccc(N(C)CCc3cccs3)n2)CC1)[C@](O)(Cn1cncn1)c1ccc(F)cc1F > 128 µg/mL

Request the reported MIC80 associated with C[C@@H](N1CCCN(c2nc3ccccc3o2)CC1)[C@](O)(Cn1cncn1)c1ccc(F)cc1F > 128 µg/mL

Request the reported MIC80 associated with C[C@@H](N1CCN(c2nc3ccccc3n2C)CC1)[C@](O)(Cn1cncn1)c1ccc(F)cc1F > 128 µg/mL

Request the reported MIC80 associated with C[C@@H](N1CCN(c2ccc3ccccc3n2)CC1)[C@](O)(Cn1cncn1)c1ccc(F)cc1F > 128 µg/mL

Request the reported MIC80 associated with C[C@@H](N1CCN(Cc2ccncc2)CC1)[C@](O)(Cn1cncn1)c1ccc(F)cc1F 128 µg/mL

Request the reported MIC80 associated with C[C@@H](N1CCN(c2cccc(OCCN3CCOCC3)n2)CC1)[C@](O)(Cn1cncn1)c1ccc(F)cc1F > 128 µg/mL

Request the reported MIC80 associated with C[C@@H](N1CCN(Cc2ccccn2)CC1)[C@](O)(Cn1cncn1)c1ccc(F)cc1F > 128 µg/mL

----------
- Test system: Candida albican ATCC MYA-1003
- assayText: In vitro antifungal activity (MIC80), Candida albican ATCC MYA-1003
- Type: cell-based
- details: Candida; Table 2, MYA 1003; read-out: Minimal inhibitory concentration (MIC80)
Recorded MIC80 by entry

These recorded examples may help you get a feel for the data.
compound	quantityName	result
C[C@@H](N1CCN(c2nc3ccc(N4CCCCC4)cc3s2)CC1)[C@](O)(Cn1cncn1)c1ccc(F)cc1F [Example 10]	MIC80	> 128 µg/mL
COc1ccc(-c2nsc(C(=O)N3CCN([C@H](C)[C@](O)(Cn4cncn4)c4ccc(F)cc4F)CC3)n2)cc1 [Example 54]	MIC80	> 128 µg/mL
CC(N1CCN(C(=O)c2nc(-c3ccc(Cl)cc3)no2)CC1)C(O)(Cn1cncn1)c1ccc(F)cc1F (stereo not drawn) [Example 48]	MIC80	> 128 µg/mL
C[C@@H](N1CCN(c2cccc(N(C)CCCN3CCOCC3)n2)CC1)[C@](O)(Cn1cncn1)c1ccc(F)cc1F [Example 27]	MIC80	64 µg/mL
C[C@@H](N1CCN(c2ccc(OCCN3CCOCC3)nc2)CC1)[C@](O)(Cn1cncn1)c1ccc(F)cc1F [Example 34]	MIC80	128 µg/mL
C[C@@H](N1CCN(c2ccc(OCC3CC3)nc2)CC1)[C@](O)(Cn1cncn1)c1ccc(F)cc1F [Example 30]	MIC80	> 128 µg/mL

Request the reported MIC80 associated with C[C@@H](N1CCCN(c2ccccn2)CC1)[C@](O)(Cn1cncn1)c1ccc(F)cc1F [Example 38] 64 µg/mL

Request the reported MIC80 associated with C[C@@H](N1CCN(C(=O)c2nc(-c3ccc(Br)cc3)no2)CC1)[C@](O)(Cn1cncn1)c1ccc(F)cc1F [Example 46] > 128 µg/mL

Request the reported MIC80 associated with COc1ccc(-c2noc(C(=O)N3CCN([C@H](C)[C@](O)(Cn4cncn4)c4ccc(F)cc4F)CC3)n2)cc1 [Example 49] > 128 µg/mL

Request the reported MIC80 associated with C[C@@H](N1CCN(c2nc3ccccc3o2)CC1)[C@](O)(Cn1cncn1)c1ccc(F)cc1F [Example 1] 128 µg/mL

Request the reported MIC80 associated with C[C@@H](N1CCN(C(=O)c2nc(-c3ccccc3)ns2)CC1)[C@](O)(Cn1cncn1)c1ccc(F)cc1F [Example 50] > 128 µg/mL

Request the reported MIC80 associated with C[C@@H](N1CCN(c2cccc(OC3CCCC3)n2)CC1)[C@](O)(Cn1cncn1)c1ccc(F)cc1F [Example 22] > 128 µg/mL
